- assay-remarks: Circular dichroism (CD) α-helicity
- Assay type: physicochemical
- recorded-conditions: Table 2; CD of free peptide, 25 °C, 1 mM Hepes pH 7.4, 5% methanol
Give Helicity (%) for every item shown.
The reply should be a number in %, with the unit left off.

Q) Helicity (%) for CC(=O)N[C@@H](CCCCN=[N+]=[N-])C(=O)NCCC(=O)N[C@@H](CC(C)C)C(=O)NC(C)(C)C(=O)N[C@@H](Cc1ccccc1)C(=O)N[C@]1(C)CCCCCCC=CCCC[C@@](C)(C(=O)N[C@@H](CO)C(=O)N[C@@H](C)C(=O)N[C@@H](C)C(N)=O)NC(=O)[C@H](CC2CCC2)NC(=O)[C@H](CCC(N)=O)NC(=O)[C@H](C)NC(=O)[C@H](Cc2c[nH]c3ccccc23)NC(=O)[C@H](Cc2ccc(O)cc2)NC(=O)[C@H](CCC(=O)O)NC1=O [T2(Aib)] ?
A) 38.3

Q) What do we get for CC(=O)N[C@@H](CCCCN=[N+]=[N-])C(=O)NCCC(=O)N[C@@H](CC(C)C)C(=O)N[C@H](C(=O)N[C@@H](Cc1ccccc1)C(=O)N[C@]1(C)CCCCCCC=CCCC[C@@](C)(C(=O)N[C@@H](CO)C(=O)N(C)[C@@H](C)C(=O)N[C@@H](C)C(N)=O)NC(=O)[C@H](CC2CCC2)NC(=O)[C@H](CCC(N)=O)NC(=O)[C@H](C)NC(=O)[C@H](Cc2c[nH]c3ccccc23)NC(=O)[C@H](Cc2ccc(O)cc2)NC(=O)[C@H](CCC(=O)O)NC1=O)[C@@H](C)O [A13(N-methyl L-Ala)] ?
A) 38.6

Q) Try the compound CC(=O)N[C@@H](CCCCN=[N+]=[N-])C(=O)NCCC(=O)N[C@@H](CC(C)C)C(=O)N[C@H](C(=O)N[C@@H](Cc1ccccc1)C(=O)N[C@]1(C)CCCCCCC=CCCC[C@@](C)(C(=O)N[C@@H](CO)C(=O)N[C@@H](C)C(=O)N[C@@H](C)C(N)=O)NC(=O)[C@H](CC2CCC2)NC(=O)[C@@H]2CCCN2C(=O)[C@H](C)NC(=O)[C@H](Cc2c[nH]c3ccccc23)NC(=O)[C@H](Cc2ccc(O)cc2)NC(=O)[C@H](CCC(=O)O)NC1=O)[C@@H](C)O [Peptide Q9P]
A) 27.4

Q) Let us now turn to CC(=O)N[C@@H](CCCCN=[N+]=[N-])C(=O)NCCC(=O)NC(C)(C)C(=O)N[C@H](C(=O)N[C@@H](Cc1ccccc1)C(=O)N[C@]1(C)CCCCCCC=CCCC[C@@](C)(C(=O)N[C@@H](CO)C(=O)N[C@@H](C)C(=O)N[C@@H](C)C(N)=O)NC(=O)[C@H](CC2CCC2)NC(=O)[C@H](CCC(N)=O)NC(=O)[C@H](C)NC(=O)[C@H](Cc2c[nH]c3ccccc23)NC(=O)[C@H](Cc2ccc(O)cc2)NC(=O)[C@H](CCC(=O)O)NC1=O)[C@@H](C)O [L1(Aib)]
A) 42.7

Q) Consider next the compound CC(=O)N[C@@H](CCCCN=[N+]=[N-])C(=O)NCCC(=O)N[C@@H](CC(C)C)C(=O)N[C@H](C(=O)N[C@@H](Cc1ccccc1)C(=O)N[C@]1(C)CCCCCCC=CCCC[C@@](C)(C(=O)NC(C)(C)C(=O)N[C@@H](C)C(=O)N[C@@H](C)C(N)=O)NC(=O)[C@H](CC2CCC2)NC(=O)[C@H](CCC(N)=O)NC(=O)[C@H](C)NC(=O)[C@H](Cc2c[nH]c3ccccc23)NC(=O)[C@H](Cc2ccc(O)cc2)NC(=O)[C@H](CCC(=O)O)NC1=O)[C@@H](C)O [S12(Aib)] in the same way.
A) 37.3

Q) Same thing, different compound: CC(=O)N[C@@H](CCCCN=[N+]=[N-])C(=O)NCCC(=O)N[C@@H](CC(C)C)C(=O)N[C@H](C(=O)N[C@@H](Cc1ccccc1)C(=O)N[C@]1(C)CCCCCCC=CCCC[C@@](C)(C(=O)N[C@@H](CO)C(=O)N[C@@H](C)C(=O)N[C@@H](C)C(N)=O)NC(=O)[C@H](CC2CCC2)NC(=O)[C@H](CCC(N)=O)NC(=O)[C@H](C)NC(=O)[C@H](Cc2c[nH]c3ccccc23)NC(=O)[C@H](Cc2ccc(O)cc2)NC(=O)CNC1=O)[C@@H](C)O [Peptide E5G]
A) 28.6

Q) Now try CC(=O)N[C@@H](CCCCN=[N+]=[N-])C(=O)NCCC(=O)N[C@@H](CC(C)C)C(=O)N[C@H](C(=O)N[C@@H](Cc1ccccc1)C(=O)N[C@]1(C)CCCCCCC=CCCC[C@@](C)(C(=O)N[C@@H](CO)C(=O)N[C@@H](C)C(=O)N[C@@H](C)C(N)=O)NC(=O)[C@H](CC2CCC2)NC(=O)[C@H](CCC(N)=O)N(C)C(=O)[C@H](C)NC(=O)[C@H](Cc2c[nH]c3ccccc23)NC(=O)[C@H](Cc2ccc(O)cc2)NC(=O)[C@H](CCC(=O)O)NC1=O)[C@@H](C)O [Q9(N-methyl L-Gln)] .
A) 20.2

Q) Same lookup for CC(=O)N[C@@H](CCCCN=[N+]=[N-])C(=O)NCCC(=O)N[C@@H](CC(C)C)C(=O)N[C@H](C(=O)N[C@@H](Cc1ccccc1)C(=O)N[C@]1(C)CCCCCCC=CCCC[C@@](C)(C(=O)N[C@@H](CO)C(=O)N[C@@H](C)C(=O)N[C@@H](C)C(N)=O)NC(=O)[C@H](CC2CCC2)NC(=O)C(C)(C)NC(=O)[C@H](C)NC(=O)[C@H](Cc2c[nH]c3ccccc23)NC(=O)[C@H](Cc2ccc(O)cc2)NC(=O)[C@H](CCC(=O)O)NC1=O)[C@@H](C)O [Q9(Aib)] , please.
A) 28

Q) Try this compound too: CC(=O)N[C@@H](CCCCN=[N+]=[N-])C(=O)NCCC(=O)N1CCC[C@H]1C(=O)N[C@H](C(=O)N[C@@H](Cc1ccccc1)C(=O)N[C@]1(C)CCCCCCC=CCCC[C@@](C)(C(=O)N[C@@H](CO)C(=O)N[C@@H](C)C(=O)N[C@@H](C)C(N)=O)NC(=O)[C@H](CC2CCC2)NC(=O)[C@H](CCC(N)=O)NC(=O)[C@H](C)NC(=O)[C@H](Cc2c[nH]c3ccccc23)NC(=O)[C@H](Cc2ccc(O)cc2)NC(=O)[C@H](CCC(=O)O)NC1=O)[C@@H](C)O [Peptide L1P]
A) 41.6
